experimental.protocol: Stability in ^131I-labeling, Tl(TFA)3/TFA iodination (Example 6-A)
Format: physicochemical
test.context: Tl(TFA)3/TFA iodination
property.measured: chemical stability during the radioiodination

# smi, result
records = [
    ("CCN(CC)CCNC(=O)c1cc(I)c(NC(=O)c2ccc(OC)cc2)cc1OC", "stable"),
    ("CCN(CC)CCNC(=O)c1cc(I)c(NC(=O)c2ccc(Cl)cc2)cc1OC", "stable"),
    ("CCN(CC)CCNC(=O)c1cc([131I])c(NC(=O)c2ccc(F)cc2)cc1OC", "stable"),
]
